assay: Log P of the peptides; assay type: physicochemical
The following substances are listed with their measured logP values.

substance: Ac-EEMQRRAD-NH2 [PEP-2, Ac-Glu-Glu-Met-Gln-Arg-Arg-Ala-Asp-NH2]
logP: -5.84
--
substance: H-FWMKRKRVP-NH2 [PEP-8]
logP: -3.38
